# Human NPR1 Amax (% of ANP) per entry
- TEST TARGET: human NPR1 (Homo sapiens)
- Construct: host or cells: CHO-K1
- EXPERIMENTAL DETAILS: Cellular cGMP production assay, human NPR1 expressing CHO-K1 cells (CisBio HTRF)
- Format: cell-based
- CONDITION DESCRIPTION: maximum cGMP production as percentage of the maximum cGMP produced with ANP

Worked examples follow.
• CC[C@H]([C@H]1CC[C@H](C(=O)O)CC1)N(C)c1nc2c(c(N[C@@H](CN3CCCC[C@@H]3CO)c3cnn(C)c3)n1)C[C@H](c1ccccc1)CC2 = 130.209 % of ANP
• CC[C@@H](Nc1nc2c(c(N[C@@H](CN3C4CCCC3CCC4)c3cnn(CC)c3)n1)C[C@H](c1cccc(F)c1)CC2)[C@H]1CC[C@H](C(=O)O)CC1 = 97.959 % of ANP

Now for a further compound.
Q) Recall the recorded Human NPR1 Amax (% of ANP) for `C[C@H]1CCCN(C[C@H](Nc2nc(N(C)[C@H](C3CC3)[C@H]3CC[C@H](C(=O)O)CC3)nc3c2C[C@H](c2ccccc2)CC3)c2cnn(C)c2)C1` with human NPR1 (Homo sapiens) and state it.
A) 96.905 % of ANP

* * *

- TEST TARGET: monkey NPR1 (Macaca fascicularis, UniProt A0A7N9DBT9)
- Sequence (A0A7N9DBT9 entry or part of it): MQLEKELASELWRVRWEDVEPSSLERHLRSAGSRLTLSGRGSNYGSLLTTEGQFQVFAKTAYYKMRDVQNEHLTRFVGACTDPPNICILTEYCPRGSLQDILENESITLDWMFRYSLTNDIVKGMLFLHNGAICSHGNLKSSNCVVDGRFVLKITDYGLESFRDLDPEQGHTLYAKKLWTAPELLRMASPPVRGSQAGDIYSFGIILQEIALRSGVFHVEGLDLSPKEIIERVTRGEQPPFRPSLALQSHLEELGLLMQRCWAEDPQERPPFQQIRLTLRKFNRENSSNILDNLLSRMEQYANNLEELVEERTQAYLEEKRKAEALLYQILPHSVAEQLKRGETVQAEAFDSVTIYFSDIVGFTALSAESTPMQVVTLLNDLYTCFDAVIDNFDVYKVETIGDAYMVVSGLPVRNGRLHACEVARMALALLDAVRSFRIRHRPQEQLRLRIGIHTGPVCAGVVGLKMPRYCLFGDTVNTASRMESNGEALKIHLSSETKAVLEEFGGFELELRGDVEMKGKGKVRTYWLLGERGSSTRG
- EXPERIMENTAL DETAILS: Cellular cGMP production assay, monkey NPR1 expressing CHO-K1 cells (CisBio HTRF)
- Type: cell-based
- CONDITION DESCRIPTION: cGMP production, monkey NPR1 CHO-K1 cells, 30 min at 37° C., 12-point dose-response from 30 μM; read-out: Monkey NPR1 AC50
yes (1) if AC50 is below 300 nM. no (0) if not; exact matches included in no (0).

Some entries whose results are on file:
- CC[C@H]([C@H]1CC[C@H](C(=O)O)CC1)N(C)c1nc2c(c(N[C@@H](CN3CCC[C@H](C)C3)c3cnn(C)c3)n1)C[C@@H](c1ccccc1)CC2 [Compound 101]: no (0)
- CC[C@@H](Nc1nc2c(c(N[C@@H](CN3CCCCC3)c3ccccc3)n1)C[C@@H](c1cccc(F)c1)CC2)[C@H]1CC[C@H](C(=O)O)CC1 [Compound 37]: yes (1)
- CC[C@@H](Nc1nc2c(c(N[C@@H](CN3CCCC4(CCOC4)C3)c3cnn(CC)c3)n1)C[C@H](c1ccccc1)CC2)[C@H]1CC[C@H](C(=O)O)CC1 (some centres unmarked) [Compound 109]: yes (1)

Q) A record lists CC[C@@H](Nc1nc2c(c(N[C@@H](CN3CCC(F)CC3)c3cnn(C)c3)n1)C[C@H](c1ccccc1)CC2)[C@H]1CC[C@H](C(=O)O)CC1 [Compound 142] . Is its AC50 below 300 nM?
A) no (0)

Q) A record lists CC[C@H]([C@H]1CC[C@H](C(=O)O)CC1)N(C)c1nc2c(c(N[C@@H](CN3CC4CCC3C4)c3cnn(C)c3)n1)C[C@H](c1ccccc1)CC2 (some centres unmarked) [Compound 128] . Is its AC50 below 300 nM?
A) no (0)

* * *

- TEST TARGET: human NPR1 (Homo sapiens, UniProt P16066)
- Construct: host or cells: CHO-K1
- Sequence (P16066 33-1061): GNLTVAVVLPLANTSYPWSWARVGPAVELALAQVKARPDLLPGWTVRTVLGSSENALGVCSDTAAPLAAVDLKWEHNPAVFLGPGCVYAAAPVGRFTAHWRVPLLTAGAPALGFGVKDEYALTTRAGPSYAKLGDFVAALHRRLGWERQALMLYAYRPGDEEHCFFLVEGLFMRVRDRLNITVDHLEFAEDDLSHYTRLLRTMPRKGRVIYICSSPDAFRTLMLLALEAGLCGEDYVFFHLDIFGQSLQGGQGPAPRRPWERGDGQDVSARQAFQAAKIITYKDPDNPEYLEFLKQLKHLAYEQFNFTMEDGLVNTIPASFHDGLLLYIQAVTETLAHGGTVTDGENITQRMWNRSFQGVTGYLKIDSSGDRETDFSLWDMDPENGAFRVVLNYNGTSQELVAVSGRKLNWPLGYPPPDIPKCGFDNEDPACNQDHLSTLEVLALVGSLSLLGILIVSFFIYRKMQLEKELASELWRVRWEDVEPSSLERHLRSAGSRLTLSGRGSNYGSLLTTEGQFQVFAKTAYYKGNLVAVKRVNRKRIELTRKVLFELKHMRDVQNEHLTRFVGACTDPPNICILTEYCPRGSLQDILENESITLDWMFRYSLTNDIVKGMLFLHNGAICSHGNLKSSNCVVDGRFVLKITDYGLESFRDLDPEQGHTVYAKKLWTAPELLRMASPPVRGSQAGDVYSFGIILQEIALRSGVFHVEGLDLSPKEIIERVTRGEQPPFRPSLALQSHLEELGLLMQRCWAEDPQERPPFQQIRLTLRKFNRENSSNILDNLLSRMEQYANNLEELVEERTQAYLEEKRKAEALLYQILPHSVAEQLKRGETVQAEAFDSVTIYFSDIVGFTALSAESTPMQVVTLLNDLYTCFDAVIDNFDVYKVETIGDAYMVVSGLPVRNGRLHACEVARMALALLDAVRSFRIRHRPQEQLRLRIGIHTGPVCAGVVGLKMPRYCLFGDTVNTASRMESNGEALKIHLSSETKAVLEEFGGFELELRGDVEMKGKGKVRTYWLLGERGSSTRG
- EXPERIMENTAL DETAILS: Cellular cGMP production assay, human NPR1 expressing CHO-K1 cells (CisBio HTRF)
- Assay type: cell-based
- CONDITION DESCRIPTION: maximum cGMP production as percentage of the maximum cGMP produced with ANP
# Human NPR1 Amax (% of ANP) per entry

Worked examples follow.
• CC[C@H]([C@H]1CC[C@H](C(=O)O)CC1)N(C)c1nc2c(c(N[C@@H](CN3CCC[C@H](O)C3)c3cnn(C)c3)n1)C[C@H](c1ccccc1)CC2 [Compound 129] = 93.751 % of ANP
• CC[C@@H](Nc1nc2c(c(N[C@@H](CN3C4CCCC3CC4)c3csc(C)n3)n1)C[C@H](c1cccc(F)c1)CC2)[C@H]1CC[C@H](C(=O)O)CC1 [Compound 127] = 102.596 % of ANP
• CC[C@@H](N(C)c1nc2c(c(N[C@@H](CN3CCC[C@H](C)C3)c3cnn(C)c3)n1)C[C@H](c1cccc(F)c1)CC2)C12CC(C(=O)O)(C1)C2 [Compound 9] = 95.056 % of ANP
• CC[C@@H](Nc1nc2c(c(N[C@H](CN3CCC[C@H](C)C3)c3cnn(C)c3)n1)C[C@](C)(c1cccc(F)c1)CC2)[C@H]1CC[C@H](C(=O)O)CC1 (stereo in doubt) [Compound 130] = 88.663 % of ANP
• CC[C@H]([C@H]1CC[C@H](C(=O)O)CC1)N(C)c1nc2c(c(N[C@@H](CN3CCC[C@H](C(F)F)C3)c3cnn(C)c3)n1)C[C@H](c1cccc(F)c1)CC2 [Compound 54] = 95.979 % of ANP
• CC[C@@H](Nc1nc2c(c(N[C@@H](CN3CCCC[C@@H]3C)c3cnn(C)c3)n1)C[C@H](c1ccccc1)CC2)[C@H]1CC[C@H](C(=O)O)CC1 [Compound 123] = 103.006 % of ANP
• CC[C@H]([C@H]1CC[C@H](C(=O)O)CC1)N(C)c1nc2c(c(N[C@@H](CN3CCC[C@H](C)C3)c3cnn(C)c3)n1)CN(c1ccc(F)cc1)CC2 [Compound 110] = 99.979 % of ANP
• CC[C@H]([C@H]1CC[C@H](C(=O)O)CC1)N(C)c1nc2c(c(N[C@@H](CN3CCCCC3)c3cnn(C)c3)n1)C[C@](C)(c1ccccc1)CC2 [Compound 66] = 96.868 % of ANP
• CC[C@@H](Nc1nc2c(c(N[C@@H](CN3CCCC(F)(F)CC3)c3cnn(CC)c3)n1)C[C@H](c1ccccc1)CC2)[C@H]1CC[C@H](C(=O)O)CC1 [Compound 137] = 95.603 % of ANP
• CC[C@H]([C@H]1CC[C@H](C(=O)O)CC1)N(C)c1nc2c(c(N[C@@H](CN3CCC[C@H](CF)C3)c3cnn(C)c3)n1)C[C@H](c1ccccc1)CC2 [Compound 87] = 93.715 % of ANP

Now for a further compound.
Q) Need Human NPR1 Amax (% of ANP), item CC[C@H]([C@H]1CC[C@H](C(=O)O)CC1)N(C)c1nc2c(c(N[C@@H](CN3C4CCCC3CCC4)c3cnn(C)c3)n1)C[C@H](c1cccc(F)c1)CC2 [Compound 29]
A) 102.911 % of ANP

* * *

# Monkey NPR1 Amax (% of ANP) per entry
- TEST TARGET: monkey NPR1 (Macaca fascicularis, UniProt A0A7N9DBT9)
- EXPERIMENTAL DETAILS: Cellular cGMP production assay, monkey NPR1 expressing CHO-K1 cells (CisBio HTRF)
- Format: cell-based
- CONDITION DESCRIPTION: maximum cGMP production as percentage of the maximum cGMP produced with ANP, monkey NPR1 CHO-K1 cells

* CC[C@@H](Nc1nc2c(c(N[C@H](CN3CCC[C@H](C)C3)c3cnn(C)c3)n1)C[C@](C)(c1cccc(F)c1)CC2)[C@H]1CC[C@H](C(=O)O)CC1 (stereo in doubt) | 114.798 % of ANP
* CC[C@@H](N(C)c1nc2c(c(N[C@@H](CN3CCCCCC3)c3cnn(C)c3)n1)C[C@H](c1cccc(F)c1)CC2)C12CC(C(=O)O)(C1)C2 | 97.462 % of ANP
* CC[C@@H](N(C)c1nc2c(c(N[C@@H](CN3CCC[C@H](C)C3)c3cnn(C)c3)n1)C[C@H](c1ccccc1)CC2)C12CC(C(=O)O)(C1)C2 | 107.199 % of ANP
* CC[C@H]([C@H]1CC[C@H](C(=O)O)CC1)N(C)c1nc2c(c(N[C@@H](CN3C4CCC3CC4)c3cnn(C)c3)n1)C[C@H](c1cccc(F)c1)CC2 | 103.000 % of ANP

Now for a further compound.
Q) Need Monkey NPR1 Amax (% of ANP), item `CC[C@H]([C@H]1CC[C@H](C(=O)O)CC1)N(C)c1nc2c(c(N[C@@H](CN3CCCCC3)c3cnn(CC4CC4)c3)n1)C[C@H](c1ccccc1)CC2`
A) 101.537 % of ANP

* * *

- TEST TARGET: human NPR1 (Homo sapiens)
- Construct: host or cells: CHO-K1
- EXPERIMENTAL DETAILS: Cellular cGMP production assay, human NPR1 expressing CHO-K1 cells (CisBio HTRF)
- Format: cell-based
- CONDITION DESCRIPTION: maximum cGMP production as percentage of the maximum cGMP produced with ANP
# Human NPR1 Amax (% of ANP) per entry

• CC[C@@H](Nc1nc2c(c(N[C@@H](CN3CCC[C@H](C)C3)c3cnn(CC)c3)n1)CN(c1cccc(F)c1)CC2)[C@H]1CC[C@H](C(=O)O)CC1 = 100.752 % of ANP
• CC[C@@H](Nc1nc2c(c(N[C@@H](CN3CC4CCC3C4)c3ccc(F)cc3)n1)C[C@H](c1ccccc1)CC2)[C@H]1CC[C@H](C(=O)O)CC1 (stereo partly shown) = 101.050 % of ANP
• CC[C@H]([C@H]1CC[C@H](C(=O)O)CC1)N(C)c1nc2c(c(N[C@@H](CN3CCC[C@H]4C[C@H]43)c3cnn(C)c3)n1)C[C@H](c1ccccc1)CC2 = 107.70 % of ANP
• CC[C@H]([C@H]1CC[C@H](C(=O)O)CC1)N(C)c1nc2c(c(N[C@@H](CN3C4CCCC3CC4)c3ccn(C)n3)n1)C[C@H](c1cccc(F)c1)CC2 = 99.945 % of ANP

Q) Recall the recorded Human NPR1 Amax (% of ANP) for `CC[C@@H](Nc1nc2c(c(N[C@@H](CN3CCCCC3)c3cnn(CC)c3)n1)C[C@H](c1cccc(F)c1)CC2)[C@H]1CC[C@H](C(=O)O)CC1` with human NPR1 (Homo sapiens) and state it.
A) 99.863 % of ANP

Q) Recall the recorded Human NPR1 Amax (% of ANP) for `CC[C@@H](Nc1nc2c(c(N[C@@H](CN3C4CCCC3CCC4)c3ccccc3)n1)C[C@H](c1ccccc1)CC2)[C@H]1CC[C@H](C(=O)O)CC1` with human NPR1 (Homo sapiens) and state it.
A) 93.072 % of ANP

Q) Recall the recorded Human NPR1 Amax (% of ANP) for `CC[C@H]([C@H]1CC[C@H](C(=O)O)CC1)N(C)c1nc2c(c(N[C@@H](CN3C4CCCC3CC4)c3cnn(C)c3)n1)C[C@H](c1cccc(F)c1)CC2` with human NPR1 (Homo sapiens) and state it.
A) 99.163 % of ANP

Q) Recall the recorded Human NPR1 Amax (% of ANP) for `CC[C@@H](Nc1nc2c(c(N[C@@H](CN3CCCCC3)c3ccccc3)n1)C[C@@H](c1cccc(F)c1)CC2)[C@H]1CC[C@H](C(=O)O)CC1` with human NPR1 (Homo sapiens) and state it.
A) 105.989 % of ANP

Q) Recall the recorded Human NPR1 Amax (% of ANP) for CC[C@H]([C@H]1CC[C@H](C(=O)O)CC1)N(C)c1nc2c(c(N[C@@H](CN3CC4CCC3C4)c3cnn(C)c3)n1)C[C@H](c1ccccc1)CC2 (stereo partly shown) with human NPR1 (Homo sapiens) and state it.
A) 105.430 % of ANP

Q) Recall the recorded Human NPR1 Amax (% of ANP) for CC[C@@H](Nc1nc2c(c(N[C@@H](CN3C4CCCC3CC(O)C4)c3cnn(CC)c3)n1)C[C@H](c1cccc(F)c1)CC2)[C@H]1CC[C@H](C(=O)O)CC1 (stereo partly shown) with human NPR1 (Homo sapiens) and state it.
A) 100.635 % of ANP

Q) Recall the recorded Human NPR1 Amax (% of ANP) for `CC[C@H]([C@H]1CC[C@H](C(=O)O)CC1)N(C)c1nc2c(c(N[C@@H](CN3CCCC4(CC4)C3)c3cnn(C)c3)n1)C[C@H](c1ccccc1)CC2` with human NPR1 (Homo sapiens) and state it.
A) 86.52 % of ANP

Q) Recall the recorded Human NPR1 Amax (% of ANP) for `CC[C@H]([C@H]1CC[C@H](C(=O)O)CC1)N(C)c1nc2c(c(N[C@@H](CN3CC[C@@H](O)[C@H](C)C3)c3cnn(C)c3)n1)C[C@H](c1ccccc1)CC2` with human NPR1 (Homo sapiens) and state it.
A) 97.72 % of ANP
